Answer each item with its documented Accumulative excretion amount.
Method Description: Fecal excretion study in rats after oral NS, SF or CNS (LC–MS/MS)
Assay type: in vivo
Assay Setup: rat feces, oral CNS 110 mg/kg, 8 h
Quick note: number first, unit second.

State its Accumulative excretion amount for this compound: CC(C)=CCC[C@](C)(O[C@@H]1O[C@H](CO[C@@H]2O[C@H](CO)[C@@H](O)[C@H](O)[C@H]2O)[C@@H](O)[C@H](O)[C@H]1O)[C@H]1CC[C@]2(C)[C@@H]1[C@H](O)C[C@@H]1[C@@]3(C)CC[C@H](O[C@@H]4O[C@H](CO)[C@@H](O)[C@H](O)[C@H]4O[C@@H]4O[C@H](CO)[C@@H](O)[C@H](O)[C@H]4O)C(C)(C)[C@@H]3CC[C@]12C [ginsenoside Rb1]
22.570 ± 15.790 µg

State its Accumulative excretion amount for this compound: CC(C)=CCC[C@](C)(O[C@@H]1O[C@H](CO)[C@@H](O)[C@H](O)[C@H]1O)[C@H]1CC[C@]2(C)[C@@H]1[C@H](O)C[C@@H]1[C@@]3(C)CC[C@H](O)C(C)(C)[C@@H]3[C@@H](O[C@@H]3O[C@H](CO)[C@@H](O)[C@H](O)[C@H]3O)C[C@]12C [ginsenoside Rg1]
39.952 ± 21.244 µg

State its Accumulative excretion amount for this compound: CC(C)=CCC[C@](C)(O[C@@H]1O[C@H](CO)[C@@H](O)[C@H](O)[C@H]1O)[C@H]1CC[C@]2(C)[C@@H]1[C@H](O)C[C@@H]1[C@@]3(C)CC[C@H](O[C@@H]4O[C@H](CO)[C@@H](O)[C@H](O)[C@H]4O[C@@H]4O[C@H](CO)[C@@H](O)[C@H](O)[C@H]4O)C(C)(C)[C@@H]3CC[C@]12C [ginsenoside Rd]
6.687 ± 3.535 µg

State its Accumulative excretion amount for this compound: CC(C)=CCC[C@](C)(O[C@@H]1O[C@H](CO)[C@@H](O)[C@H](O)[C@H]1O)[C@H]1CC[C@]2(C)[C@@H]1[C@H](O)C[C@@H]1[C@@]3(C)CC[C@H](O)C(C)(C)[C@@H]3[C@@H](O[C@@H]3O[C@H](CO)[C@@H](O)[C@H](O)[C@H]3O[C@@H]3O[C@@H](C)[C@H](O)[C@@H](O)[C@H]3O)C[C@]12C [ginsenoside Re]
4.802 ± 4.393 µg
